# ASSAY_SYSTEM: HA-GST-Rheb (GTP-γ-S loaded) activating mTORC1 (Homo sapiens (Human), UniProt Q15382)
# Sequence (Q15382 1-181): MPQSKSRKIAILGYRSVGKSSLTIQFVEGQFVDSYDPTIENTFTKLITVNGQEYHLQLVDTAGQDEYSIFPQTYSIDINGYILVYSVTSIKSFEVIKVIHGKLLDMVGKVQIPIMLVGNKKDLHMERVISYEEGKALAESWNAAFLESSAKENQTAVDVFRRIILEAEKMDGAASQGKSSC
# MEASUREMENT_PROTOCOL: Rheb-dependent in vitro kinase assay (Rheb-IVK; LanthaScreen or Western readout)
# Assay type: biochemical
# CONDITION_CONTEXT: Rheb-dependent in vitro kinase assay; read-out: IVK IC50
pIC50: −log10 of the molar value.
Entries and their measured pIC50 follow.
MEASURE: pIC50

[O-][S+](c1ccccc1)c1cc(Br)c2cc(CO)[nH]c2c1 (stereo not drawn) [I-229]	< 4.00
O=C(O)c1cc2c(OCc3ccc(Cl)cc3)cc(Cl)c(Cl)c2[nH]1 [I-60]	4.00 to 5.00
Cn1c(CO)cc2c(Oc3ccccc3F)cccc21 [I-274]	< 4.00
CN(C)C(=O)c1ccc(Cn2c(C(=O)O)cc3c(C4CC4)cc(Sc4ccc(Cl)c(Cl)c4)cc32)cc1 [I-10]	> 5.00
OCc1nc2c(OCC3CCCCC3)c(Cl)c(Cl)cc2[nH]1 [I-395]	> 5.00
O=C(O)c1cc2c(Sc3ccc(Cl)cc3Cl)cc(Cl)cc2n1Cc1ccc(-c2ccncc2)cc1 [I-70]	> 5.00
N#CCc1nc2c(Oc3ccccc3)cccc2[nH]1 [I-471]	< 4.00
CN(C)C(=O)c1ccc(Cn2c(C(=O)O)cc3ccc(Sc4ccc(Cl)c(Cl)c4)c(Br)c32)cc1 [I-6]	> 5.00
OCc1nc2cc(OCc3ccccc3)c(Cl)cc2n1Cc1ccccc1 [I-466]	< 4.00
